- Test system: UniProt Q99527
- Sequence (Q99527 whole entry): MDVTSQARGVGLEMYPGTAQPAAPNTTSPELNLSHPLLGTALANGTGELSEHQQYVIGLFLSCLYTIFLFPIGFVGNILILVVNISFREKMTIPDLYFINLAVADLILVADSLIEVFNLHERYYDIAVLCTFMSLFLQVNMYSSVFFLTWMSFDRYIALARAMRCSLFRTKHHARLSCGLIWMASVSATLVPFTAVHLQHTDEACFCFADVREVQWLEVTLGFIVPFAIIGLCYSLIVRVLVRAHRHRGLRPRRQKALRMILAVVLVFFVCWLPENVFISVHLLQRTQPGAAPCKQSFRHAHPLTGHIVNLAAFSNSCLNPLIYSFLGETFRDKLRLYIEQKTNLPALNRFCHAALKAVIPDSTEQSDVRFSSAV
- Assay details: Competitive binding assay in intact SKBR3 cells with E2-FITC as fluoro-tracer (flow cytometry)
- Run conditions: intact SKBR3 cells, E2-FITC; read-out: binding dissociation constant (Kd), GPER
Readout type: Kd

Asked: What measured Kd goes with Cc1ncsc1-c1ccc(CNC(=O)C2CC(O)CN2C(=O)C(NC(=O)COCCOCCOCCOCC(=O)OC2CCC3C4CCc5cc(O)ccc5C4CCC23C)C(C)(C)C)cc1 (stereo not shown) ?
Given back: ~30 nM
